The following molecules are shown together with reported COX I % Inhibition (values marked *) values.
assayed target: COX I (Ovis aries, UniProt P05979)
Construct: The COX was purified form ram seminal vesicles; from tissue; host or cells: ram seminal vesicles
Sequence (P05979 25-600): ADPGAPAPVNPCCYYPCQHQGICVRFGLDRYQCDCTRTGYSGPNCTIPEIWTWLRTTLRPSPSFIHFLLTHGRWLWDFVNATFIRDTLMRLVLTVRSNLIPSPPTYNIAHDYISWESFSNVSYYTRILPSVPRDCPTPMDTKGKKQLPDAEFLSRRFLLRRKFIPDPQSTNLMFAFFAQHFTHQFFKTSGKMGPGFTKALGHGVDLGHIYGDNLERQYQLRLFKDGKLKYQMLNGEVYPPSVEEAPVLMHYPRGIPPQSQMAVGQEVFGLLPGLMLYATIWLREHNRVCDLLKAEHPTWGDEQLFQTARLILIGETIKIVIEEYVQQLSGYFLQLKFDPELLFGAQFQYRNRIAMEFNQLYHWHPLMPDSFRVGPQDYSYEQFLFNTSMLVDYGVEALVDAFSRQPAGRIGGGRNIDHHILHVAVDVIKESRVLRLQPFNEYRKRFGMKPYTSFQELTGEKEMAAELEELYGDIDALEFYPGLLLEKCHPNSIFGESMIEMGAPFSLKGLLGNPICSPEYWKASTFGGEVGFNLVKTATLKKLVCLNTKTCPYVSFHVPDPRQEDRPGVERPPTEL
test method notes: Cyclooxygenase (COX) inhibition, purified COX
Format: biochemical
condition details: values marked *: 1000 μM test compound; purified COX from ram seminal vesicles
Marks after values point to notes of the source that are not given here.

// solved cases for COX I % Inhibition (values marked *) follow
molecule | assayed target | COX I % Inhibition (values marked *)
COc1cc(/C=C2/C(C)=C(CC(=O)N(CCC#N)Cc3ccccc3)c3cc(F)ccc32)cc(OC)c1OC [Example 37] | COX I (Ovis aries, UniProt P05979) | 38* %
COc1cc(/C=C2/C(C)=C(CC(=O)NCc3c(F)c(F)c(F)c(F)c3F)c3cc(F)ccc32)cc(OC)c1OC [Example 51] | COX I (Ovis aries, UniProt P05979) | <25* %
COc1cc(/C=C2/C(C)=C(CC(=O)N(CCN(C)C)Cc3ccccc3)c3cc(F)ccc32)cc(OC)c1OC [Example 36] | COX I (Ovis aries, UniProt P05979) | 72* %
CCOC(=O)CN(Cc1ccccc1)C(=O)CC1=C(C)/C(=C/c2cc(OC)c(OC)c(OC)c2)c2ccc(F)cc21 [Example 31] | COX I (Ovis aries, UniProt P05979) | 30* %
COc1cc(/C=C2/C(C)=C(CC(=O)NCCc3ccccc3)c3cc(F)ccc32)cc(OC)c1OC [Example 39] | COX I (Ovis aries, UniProt P05979) | 59* %
COc1cc(/C=C2/C(C)=C(CC(=O)NCc3ccccc3F)c3cc(F)ccc32)cc(OC)c1OC [Example 32] | COX I (Ovis aries, UniProt P05979) | 58* %

We next turn to a different molecule, shown below.
Q: Fill blank: measured COX I % Inhibition (values marked *) of the molecule COc1cc(/C=C2/C(C)=C(CC(=O)NCCCN(C)C)c3cc(F)ccc32)cc(OC)c1OC [Example 44] is ____.
A: 51* %
